B1: Zinc finger MYM-type protein 6, residues 427 to 504; numbered along this chain, O95789 (parent)
chain: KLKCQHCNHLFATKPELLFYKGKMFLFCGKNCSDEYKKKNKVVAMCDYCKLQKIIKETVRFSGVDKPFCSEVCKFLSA

Variants of: B1
assay.procedure: abundance fitness (aPCA) (normalised: wild type 0, dead -1); higher = more abundant; growth selection in yeast, the domain comes from the species named
condition.label: Homo sapiens
Classify as follows. Reported abundance fitness greater than or equal to -0.07: rule met. Reported abundance fitness below: rule not met.

Worked cases, answers included:
                        biopolymer_sequence   group_label
0  KLKCQHCNHLFATKPELLFYKGKMFLFCGKNCSDEYKKKCKVVAMCDYCKLQKIIKETVRFSGVDKPFCSEVCKFLSA  rule not met
1  KLKCQHCNHLFATKPELLFYKGKMFLFCGKNCSDEYKKKNKVVAMCDWCKLQKIIKETVRFSGVDKPFCSEVCKFLSA  rule not met
2  KLKCQHCNHLFATKPELLFYKGKMFLFCGKNCSDEYKKKNKVVAMCDYCKLQKIIKETVRFSGTDKPFCSEVCKFLSA      rule met

Query: // inclusive: abundance fitness at least -0.07? input: "KLKCQHCNHLFATKPELLFYKGKMFLFCGKNCSDEYKKKNKVVAMCDYCKLQKIIKETVRFSGVDKPFCSMVCKFLSA"
Result: rule met

Query: Is abundance fitness at least -0.07? Consider "KLKCQHCNHLFATKPELLFYKGKMFLFQGKNCSDEYKKKNKVVAMCDYCKLQKIIKETVRFSGVDKPFCSEVCKFLSA"
Result: rule not met

Query: Could you please find out whether "KLKCQHCNHLFATKPELLFYKGKMFLFCGKNCSDEYKKKNKVVAMCDYCKIQKIIKETVRFSGVDKPFCSEVCKFLSA" has abundance fitness that meets -0.07 or exceeds it?
Result: rule met

Query: Given "KLKCQHCNHLFATKPELLFYKGKMFLQCGKNCSDEYKKKNKVVAMCDYCKLQKIIKETVRFSGVDKPFCSEVCKFLSA" , state whether its abundance fitness is at least -0.07.
Result: rule not met
